quantity: boiling point
Include the unit after the number when you answer.

Task: Supply recorded boiling point for "Cc1coc2ccccc12" here.
Output: 197 °C

Task: Supply recorded boiling point for "CC#CCCCCC" here.
Output: 138 °C

Task: Supply recorded boiling point for "ClCC(Cl)Cl" here.
Output: 114 °C

Task: Supply recorded boiling point for "FC=C(F)F" here.
Output: -51 °C

Task: Supply recorded boiling point for CC1CCCNC1=O (stereo not drawn) here.
Output: 250 °C

Task: Supply recorded boiling point for CC(C=O)c1ccccc1 (stereo not drawn) here.
Output: 204 °C

Task: Supply recorded boiling point for "Cc1cc(C)c(Cl)c(C)c1" here.
Output: 205 °C

Task: Supply recorded boiling point for "c1ccc(-c2ccccn2)nc1" here.
Output: 274 °C

====

What log10 vapour pressure (mmHg) was measured for each of the following?

Task: Supply recorded log10 vapour pressure (mmHg) for "COc1ccccc1[N+](=O)[O-]" here.
Output: -2.44

Task: Supply recorded log10 vapour pressure (mmHg) for "CCC/C=C/CCC" here.
Output: 1.25

Task: Supply recorded log10 vapour pressure (mmHg) for "CCOC(=O)CC(C)=O" here.
Output: -0.108

Task: Supply recorded log10 vapour pressure (mmHg) for "O=C=Nc1ccc(Cl)cc1" here.
Output: -0.712

Task: Supply recorded log10 vapour pressure (mmHg) for "CCOC(=O)CCCCCCCCC(=O)OCC" here.
Output: -3.29

Task: Supply recorded log10 vapour pressure (mmHg) for "Clc1ccc(Oc2ccccc2)c(Cl)c1" here.
Output: -3.04

Task: Supply recorded log10 vapour pressure (mmHg) for "CCOP(=O)(OCC)Oc1ccc([N+](=O)[O-])cc1" here.
Output: -5.96

====

conditions: fish
quantity: log10 BCF

Task: Supply recorded log10 BCF for "OC(c1ccc(Cl)cc1)(c1ccc(Cl)cc1)C(Cl)(Cl)Cl" here.
Output: 3.79

Task: Supply recorded log10 BCF for "CCOP(=S)(OCC)O/N=C(\C#N)c1ccccc1" here.
Output: 2.91

Task: Supply recorded log10 BCF for "CC(C)CCOCCC(C)C" here.
Output: 2.23

Task: Supply recorded log10 BCF for "Clc1cc2oc3cc(Cl)c(Cl)cc3c2cc1Cl" here.
Output: 3.61

====

quantity: melting point (°C)
Form entry: value (°C) — number only.

Task: Supply recorded melting point for "O=C(NNc1ccccc1)c1ccccc1" here.
Output: 168

Task: Supply recorded melting point for "Clc1ccccc1C(c1ccccc1)(c1ccccc1)n1ccnc1" here.
Output: 148

Task: Supply recorded melting point for "O=[N+]([O-])c1cc(Cl)c(Cl)cc1Cl" here.
Output: 57.5

Task: Supply recorded melting point for Cc1c(COC(=O)[C@@H]2[C@H](/C=C(\Cl)C(F)(F)F)C2(C)C)cccc1-c1ccccc1 (racemic) here.
Output: 69

Task: Supply recorded melting point for "CC(C)(C#N)C#N" here.
Output: 31.5

Task: Supply recorded melting point for "CNC[C@H](O)c1ccccc1" here.
Output: 44

Task: Supply recorded melting point for "CC(C)(c1cc(Br)c(OCCO)c(Br)c1)c1cc(Br)c(OCCO)c(Br)c1" here.
Output: 107

Task: Supply recorded melting point for "O=C(C[N+](=O)[O-])Nc1ccccc1" here.
Output: 94

Task: Supply recorded melting point for "CC(F)(F)Cl" here.
Output: -131

Task: Supply recorded melting point for "COc1ccccc1-c1ccccc1" here.
Output: 29

Task: Supply recorded melting point for "C[C@H](CC(=O)O)[C@H]1CC[C@H]2[C@@H]3CC[C@@H]4CCCC[C@]4(C)[C@H]3CC[C@]12C" here.
Output: 177

Task: Supply recorded melting point for "Clc1cccs1" here.
Output: -71.9

Task: Supply recorded melting point for "OCC#CCO" here.
Output: 50

Task: Supply recorded melting point for "CN1C(=O)CC[C@H]1c1cccnc1" here.
Output: 41

Task: Supply recorded melting point for "O=[N+]([O-])c1ccc(O)c(F)c1" here.
Output: 121

Task: Supply recorded melting point for COC(=O)C(C)N(C(=O)c1ccccc1)c1ccc(F)c(Cl)c1 (stereo not given) here.
Output: 85

Task: Supply recorded melting point for CC(C)(C)c1ccc(C(O)CCCN2CCC(C(O)(c3ccccc3)c3ccccc3)CC2)cc1 (stereo not given) here.
Output: 147

Task: Supply recorded melting point for C=CC1CN2CCC1CC2C(=O)c1ccnc2ccc(OC)cc12 (stereo not given) here.
Output: 108

Task: Supply recorded melting point for "CC(C)CB(CC(C)C)CC(C)C" here.
Output: -88

Task: Supply recorded melting point for "CCn1ccc2ccccc21" here.
Output: 105
